# Tested on: RAW-Dual (murine macrophage reporter line)
# protocol.notes: NF-kB reporter (SEAP) activity fold change vs agonist alone; higher = enhanced NF-kB activity
# condition: modulator concentration 10 µM; agonist: LPS 0.1 ug/mL
Cut-off 1 on NF-kB reporter, inclusive. At or above means Satisfied; below means Not satisfied.

compound=CCCCc1nc2cc(/C=C/C(=O)NO)ccc2n1CCN(CC)CC class=Satisfied
compound=S=c1n(CN2CCOCC2)nc(-c2ccccc2Br)n1-c1ccccc1 class="Not satisfied"
compound=Cl.O=C1c2cccc3c2[C@H](CCC3)CN1[C@@H]1CN2CCC1CC2 class="Not satisfied"
compound=COc1cc(Nc2ncc(F)c(Nc3ccc4c(n3)N(COP(=O)(O)O)C(=O)C(C)(C)O4)n2)cc(OC)c1OC class="Not satisfied"
compound="O=C(O)CCCCC1SCC2NC(=O)NC21 (configuration not stated)" class=Satisfied

[in] Answer whether NF-kB reporter of O=C(CCc1csc(NC(=O)c2ccco2)n1)Nc1ccc(Cl)cc1 is greater than or equal to 1.
[out] Not satisfied

[in] Next entry: CC(=O)OCCN(CCOC(C)=O)c1c(C)[nH]c(=O)[nH]c1=O
[out] Not satisfied

[in] Item: O=C(Nc1ccc(-c2cn3ccsc3n2)cc1)C1CCCC1
[out] Satisfied

[in] Lookup COc1ccc(CNCc2cccc3ccccc23)cc1OC
[out] Not satisfied

[in] Quick one: CCCCCCC1OCC2(CO)C(C)C=C(C)C1C2C (configuration not stated)
[out] Not satisfied

[in] Try c1ccc(-c2ccc(C(c3ccccc3)n3ccnc3)cc2)cc1 (configuration not stated) next.
[out] Not satisfied

[in] Now give it for COC(=O)C1=CN(CC2CCCO2)C=C(C(=O)OC)C1c1cccc(Cl)c1 (configuration not stated) too.
[out] Not satisfied

[in] Another: O=S(=O)(Nc1ccc(-c2nc3cccnc3s2)cc1)c1cccs1
[out] Not satisfied

[in] // same read-out, input: CC(C)(C)C1(O)CC(C(F)(F)F)=NN1C(=O)c1ccc([N+](=O)[O-])cc1 (configuration not stated)
[out] Not satisfied

[in] Entry O=C1[C@H](CC[C@H](O)c2ccc(F)cc2)[C@@H](c2ccc(O)cc2)N1c1ccc(F)cc1 please
[out] Satisfied

[in] Entry O=C(OC1Cc2c(O)cc(O)cc2OC1c1cc(O)c(O)c(O)c1)c1cc(O)c(O)c(O)c1 (configuration not stated) please
[out] Satisfied

[in] Another: COCCOCC1CCN(C(=O)c2cc(-c3cccc(OC)c3)n[nH]2)CC1
[out] Not satisfied

---

# Test system: RAW-Dual (murine macrophage reporter line)
# protocol.notes: viability score (confluency relative to resting cells, overnight) (fraction); higher = more viable, active = viable (0.7 or more)
# condition: modulator concentration 10 µM
readout.kind: viability score
Answer using only a numeral; do not append any unit.

Past entries and their recorded results:
compound=O=C(O)c1ccccc1N(Cc1ccccc1)S(=O)(=O)c1ccccc1 measured_on="RAW-Dual (murine macrophage reporter line)" experimental_value=0.984
compound=CC1(C)CC(=O)c2c(nc3ccc(Br)cc3c2N)C1.Cl measured_on="RAW-Dual (murine macrophage reporter line)" experimental_value=0.995
compound=CC(=O)N1CC(C(=O)Nc2ccc(Br)c(C)c2)C1 measured_on="RAW-Dual (murine macrophage reporter line)" experimental_value=0.997
compound=Br.O=S(=O)(c1ccc(-c2csc(Nc3ccc(Br)cc3)n2)cc1)N1CCCC1 measured_on="RAW-Dual (murine macrophage reporter line)" experimental_value=1.01
compound="CC(CCc1ccccc1)NCC(O)c1ccc(O)c(C(N)=O)c1.Cl (stereo unspecified)" measured_on="RAW-Dual (murine macrophage reporter line)" experimental_value=0.984

// next entry
[in] Looking for the measured viability score of Clc1ccc(C=NN2CCN(C(c3ccccc3)c3ccccc3)CC2)cc1 , can you help?
[out] 0.996
